- protocol.description: qHTS screen for small molecules that inhibit ELG1-dependent DNA repair in human embryonic kidney (HEK293T) cells expressing luciferase-tagged ELG1; further: nearly all actives have a fitted effect of over 55% in size
- condition.description: HEK293T ELG1-luciferase reporter, luminescence, 16 h, DNA damage induced by 5-fluorouridine; series mostly up to 46.1 µM
The whole screen tested about 330,000 compounds, of which about 7,700 (2.3%) were called active. Not shown: some 26% with an inconclusive outcome. The call rests on the fitted dose curve; in most records, active means well fitted inhibition curve with a large enough effect; inconclusive means small, poorly fitted or top-dose-only effect, or effect the other way; inactive means flat fitted curve, though single readings scatter. Only a selection was taken, and actives are over-represented in it overall.
Labels: active, inactive

In [3]: df
Out[3]:
                                    molecule  class_assignment
 0  CC(Cc1ccccc1)NCCC(c1ccccc1)c1ccccc1 (stereo unspecified)          inactive
 1  CCCCn1c(=O)c(C(=O)Nc2ccccc2Cl)c(O)c2ccccc21          inactive
 2  Cc1c(Oc2cc(NN3CCCCC3)c([N+](=O)[O-])cc2[N+](=O)[O-])cccc1[N+](=O)[O-]          inactive
 3  COc1cccc(OC)c1C(=O)NC(=S)N1C[C@H]2C[C@H](C1)c1cccc(=O)n1C2          inactive
 4  COC(=O)C1=C(c2ccc(Cl)c(C(F)(F)F)c2)C[C@@H]2CC[C@H]1N2C(=O)NC(C)C          inactive
 5  CN(C)CCN(CC1CCCN(Cc2ccccc2F)C1)C(=O)Cc1ccc(F)c(F)c1 (stereo unspecified)          inactive
 6       Cc1ncoc1C(=O)NCCC(c1ccccc1)c1ccccc1            active
 7           COc1ccc2[nH]c3c(c2c1)CCN[C@H]3C          inactive
 8    CCOc1cccc(=NC2CCCCC2)c2c(C)[nH]c(C)c12            active
 9  O=C(c1cc2nc(-c3ccccc3)cc(-c3ccccc3)n2n1)N1CCC2(CC1)OCCO2            active
10  O=C(c1ccccc1[N+](=O)[O-])N1CCC2(CC1)OCCO2          inactive
